The values you see were collected from ChEMBL document CHEMBL5543109.

Entries and their MIC
Test system: Staphylococcus aureus
TEST METHOD NOTES: Antibacterial activity against methicillin resistant Staphylococcus aureus incubated for 18 hrs by broth microdilution method
Assay type: functional
Form entry: value (µM) — number only.

Field: example entries. Status: answers known.
{"columns": ["MOLECULE", "SCALE UNIT", "MIC"],
 "data": [
  ["C[C@@H](O)[C@H]1C(=O)N2C(C(=O)O)=C(SCCNC=N)C[C@H]12 [IMIPENEM ANHYDROUS]", "µM", 32],
  ["O=C(O)c1cn(C2CC2)c2cc(N3CCNCC3)c(F)cc2c1=O", "µM", 256],
  ["C[C@@H](O)[C@H]1C(=O)N2C(C(=O)O)=C(S[C@@H]3CN[C@H](C(=O)N(C)C)C3)[C@H](C)[C@H]12", "µM", 32],
  ["CN[C@H](CC(C)C)C(=O)N[C@H]1C(=O)N[C@@H](CC(N)=O)C(=O)N[C@H]2C(=O)N[C@H]3C(=O)N[C@H](C(=O)N[C@H](C(=O)O)c4cc(O)cc(O)c4-c4cc3ccc4O)[C@H](O)c3ccc(c(Cl)c3)Oc3cc2cc(c3O[C@@H]2O[C@H](CO)[C@@H](O)[C@H](O)[C@H]2O[C@H]2C[C@](C)(N)[C@H](O)[C@H](C)O2)Oc2ccc(cc2Cl)[C@H]1O", "µM", 0.5]
]}

Looking up CO/N=C(\C(=O)N[C@@H]1C(=O)N2C(C(=O)O)=C(COC(C)=O)CS[C@H]12)c1csc(N)n1 , I see its MIC listed as 256

Looking up NC[C@H]1O[C@H](O[C@H]2[C@H](O)[C@@H](O[C@H]3O[C@H](CO)[C@@H](O)[C@H](N)[C@H]3O)[C@H](N)C[C@@H]2N)[C@H](O)[C@@H](O)[C@@H]1O , I see its MIC listed as 256

Looking up CO[C@H]1/C=C/O[C@@]2(C)Oc3c(C)c(O)c4c(O)c(c(/C=N/N5CCN(C)CC5)c(O)c4c3C2=O)NC(=O)/C(C)=C\C=C\[C@H](C)[C@H](O)[C@@H](C)[C@@H](O)[C@@H](C)[C@H](OC(C)=O)[C@@H]1C , I see its MIC listed as 256

Looking up CN[C@@H]1[C@H](O[C@H]2[C@H](O[C@H]3[C@H](O)[C@@H](O)[C@H](N=C(N)N)[C@@H](O)[C@@H]3N=C(N)N)O[C@@H](C)[C@]2(O)C=O)O[C@@H](CO)[C@H](O)[C@H]1O , I see its MIC listed as 32

Looking up NCCCC[C@@H](NC(=O)[C@H](N)Cc1c[nH]c2ccccc12)C(=O)N[C@H](Cc1c[nH]c2ccccc12)C(=O)N[C@H](CCCCN)C(=O)N[C@H](Cc1c[nH]c2ccccc12)C(=O)N[C@@H](CC(N)=O)C(=O)NCC(=O)N[C@H](Cc1c[nH]c2ccccc12)C(=O)N[C@H](CCCCN)C(=O)N[C@H](Cc1c[nH]c2ccccc12)C(=O)N[C@H](CCCCN)C(=O)N[C@H](Cc1c[nH]c2ccccc12)C(N)=O , I see its MIC listed as 8

* * *

System: Staphylococcus aureus
TEST METHOD NOTES: Bactericidal activity against Staphylococcus aureus ATCC 25923 incubated for 18 hrs by broth microdilution method
Assay type: functional
Entries and their MBC
Form entry: value (µM) — number only.

Looking up NCCCC[C@@H](NC(=O)[C@H](N)Cc1c[nH]c2ccccc12)C(=O)N[C@H](Cc1c[nH]c2ccccc12)C(=O)N[C@H](CCCCN)C(=O)N[C@H](Cc1c[nH]c2ccccc12)C(=O)N[C@@H](CC(N)=O)C(=O)NCC(=O)N[C@H](Cc1c[nH]c2ccccc12)C(=O)N[C@H](CCCCN)C(=O)N[C@H](Cc1c[nH]c2ccccc12)C(=O)N[C@H](CCCCN)C(=O)N[C@H](Cc1c[nH]c2ccccc12)C(N)=O , I see its MBC listed as 8

Looking up NCCCC[C@@H](N)C(=O)N[C@H](Cc1c[nH]c2ccccc12)C(=O)N[C@H](CCCCN)C(=O)N[C@H](Cc1c[nH]c2ccccc12)C(=O)N[C@H](CCCCN)C(=O)NCC(=O)NCC(=O)N[C@H](CCCCN)C(=O)N[C@H](Cc1c[nH]c2ccccc12)C(=O)N[C@H](CCCCN)C(=O)N[C@H](Cc1c[nH]c2ccccc12)C(=O)N[C@H](CCCCN)C(N)=O , I see its MBC listed as 32

* * *

TEST METHOD NOTES: Self-assembly property of compound in 50% TFE assessed as beta-sheet content
Assay type: physicochemical
Entries and their Activity

{"columns": ["STRUCTURE NOTATION", "REPORTED"],
 "data": [
  ["NCCCC[C@@H](NC(=O)[C@H](N)Cc1c[nH]c2ccccc12)C(=O)N[C@H](Cc1c[nH]c2ccccc12)C(=O)N[C@H](CCCCN)C(=O)N[C@H](Cc1c[nH]c2ccccc12)C(=O)N1CCC[C@@H]1C(=O)NCC(=O)N[C@H](Cc1c[nH]c2ccccc12)C(=O)N[C@H](CCCCN)C(=O)N[C@H](Cc1c[nH]c2ccccc12)C(=O)N[C@H](CCCCN)C(=O)N[C@H](Cc1c[nH]c2ccccc12)C(N)=O", "50%"]
]}

Looking up NCCCC[C@@H](N)C(=O)N[C@H](Cc1c[nH]c2ccccc12)C(=O)N[C@H](CCCCN)C(=O)N[C@H](Cc1c[nH]c2ccccc12)C(=O)N[C@H](CCCCN)C(=O)N1CCC[C@H]1C(=O)NCC(=O)N[C@H](CCCCN)C(=O)N[C@H](Cc1c[nH]c2ccccc12)C(=O)N[C@H](CCCCN)C(=O)N[C@H](Cc1c[nH]c2ccccc12)C(=O)N[C@H](CCCCN)C(N)=O , I see its Activity listed as 39.2%

Looking up NCCCC[C@@H](NC(=O)[C@H](N)Cc1c[nH]c2ccccc12)C(=O)N[C@H](Cc1c[nH]c2ccccc12)C(=O)N[C@H](CCCCN)C(=O)N[C@H](Cc1c[nH]c2ccccc12)C(=O)N1CCC[C@H]1C(=O)NCC(=O)N[C@H](Cc1c[nH]c2ccccc12)C(=O)N[C@H](CCCCN)C(=O)N[C@H](Cc1c[nH]c2ccccc12)C(=O)N[C@H](CCCCN)C(=O)N[C@H](Cc1c[nH]c2ccccc12)C(N)=O , I see its Activity listed as 30.1%

Looking up NCCCC[C@@H](N)C(=O)N[C@H](Cc1c[nH]c2ccccc12)C(=O)N[C@H](CCCCN)C(=O)N[C@H](Cc1c[nH]c2ccccc12)C(=O)N[C@H](CCCCN)C(=O)N1CCC[C@@H]1C(=O)NCC(=O)N[C@H](CCCCN)C(=O)N[C@H](Cc1c[nH]c2ccccc12)C(=O)N[C@H](CCCCN)C(=O)N[C@H](Cc1c[nH]c2ccccc12)C(=O)N[C@H](CCCCN)C(N)=O , I see its Activity listed as 30.4%

* * *

System: Klebsiella pneumoniae
TEST METHOD NOTES: Antibacterial activity against Klebsiella pneumoniae ATCC 700603 incubated for 18 hrs by broth microdilution method
Type: functional
MEASURED ENDPOINT: MIC (µM)
Form entry: value (µM) — number only.

{"columns": ["STRUCTURE NOTATION", "TEST SYSTEM", "MEASURED ENDPOINT", "REPORTED"],
 "data": [
  ["NCCCC[C@@H](N)C(=O)N[C@H](Cc1c[nH]c2ccccc12)C(=O)N[C@H](CCCCN)C(=O)N[C@H](Cc1c[nH]c2ccccc12)C(=O)N[C@H](CCCCN)C(=O)N1CCC[C@H]1C(=O)NCC(=O)N[C@H](CCCCN)C(=O)N[C@H](Cc1c[nH]c2ccccc12)C(=O)N[C@H](CCCCN)C(=O)N[C@H](Cc1c[nH]c2ccccc12)C(=O)N[C@H](CCCCN)C(N)=O", "Klebsiella pneumoniae", "MIC", 32]
]}

Looking up NCCCC[C@@H](NC(=O)[C@H](N)Cc1c[nH]c2ccccc12)C(=O)N[C@H](Cc1c[nH]c2ccccc12)C(=O)N[C@H](CCCCN)C(=O)N[C@H](Cc1c[nH]c2ccccc12)C(=O)N1CCC[C@@H]1C(=O)N1CCC[C@H]1C(=O)N[C@H](Cc1c[nH]c2ccccc12)C(=O)N[C@H](CCCCN)C(=O)N[C@H](Cc1c[nH]c2ccccc12)C(=O)N[C@H](CCCCN)C(=O)N[C@H](Cc1c[nH]c2ccccc12)C(N)=O , I see its MIC listed as 8

* * *

System: Bacillus subtilis
TEST METHOD NOTES: Bactericidal activity against Bacillus subtilis ATCC 23857 incubated for 18 hrs by broth microdilution method
Type: functional
Entries and their MBC

{"columns": ["STRUCTURE NOTATION", "TEST SYSTEM", "REPORTED"],
 "data": [
  ["NCCCC[C@@H](NC(=O)[C@H](N)Cc1c[nH]c2ccccc12)C(=O)N[C@H](Cc1c[nH]c2ccccc12)C(=O)N[C@H](CCCCN)C(=O)N[C@H](Cc1c[nH]c2ccccc12)C(=O)NCC(=O)NCC(=O)N[C@H](Cc1c[nH]c2ccccc12)C(=O)N[C@H](CCCCN)C(=O)N[C@H](Cc1c[nH]c2ccccc12)C(=O)N[C@H](CCCCN)C(=O)N[C@H](Cc1c[nH]c2ccccc12)C(N)=O", "Bacillus subtilis", "8 µM"],
  ["NCCCC[C@@H](N)C(=O)N[C@H](Cc1c[nH]c2ccccc12)C(=O)N[C@H](CCCCN)C(=O)N[C@H](Cc1c[nH]c2ccccc12)C(=O)N[C@H](CCCCN)C(=O)N1CCC[C@@H]1C(=O)NCC(=O)N[C@H](CCCCN)C(=O)N[C@H](Cc1c[nH]c2ccccc12)C(=O)N[C@H](CCCCN)C(=O)N[C@H](Cc1c[nH]c2ccccc12)C(=O)N[C@H](CCCCN)C(N)=O", "Bacillus subtilis", "8 µM"]
]}

Looking up NCCCC[C@@H](NC(=O)[C@H](N)Cc1c[nH]c2ccccc12)C(=O)N[C@H](Cc1c[nH]c2ccccc12)C(=O)N[C@H](CCCCN)C(=O)N[C@H](Cc1c[nH]c2ccccc12)C(=O)N1CCC[C@@H]1C(=O)N1CCC[C@H]1C(=O)N[C@H](Cc1c[nH]c2ccccc12)C(=O)N[C@H](CCCCN)C(=O)N[C@H](Cc1c[nH]c2ccccc12)C(=O)N[C@H](CCCCN)C(=O)N[C@H](Cc1c[nH]c2ccccc12)C(N)=O , I see its MBC listed as 2 µM

Looking up NCCCC[C@@H](N)C(=O)N[C@H](Cc1c[nH]c2ccccc12)C(=O)N[C@H](CCCCN)C(=O)N[C@H](Cc1c[nH]c2ccccc12)C(=O)N[C@H](CCCCN)C(=O)N1CCC[C@@H]1C(=O)N1CCC[C@H]1C(=O)N[C@H](CCCCN)C(=O)N[C@H](Cc1c[nH]c2ccccc12)C(=O)N[C@H](CCCCN)C(=O)N[C@H](Cc1c[nH]c2ccccc12)C(=O)N[C@H](CCCCN)C(N)=O , I see its MBC listed as 8 µM

Looking up NCCCC[C@@H](N)C(=O)N[C@H](Cc1c[nH]c2ccccc12)C(=O)N[C@H](CCCCN)C(=O)N[C@H](Cc1c[nH]c2ccccc12)C(=O)N[C@H](CCCCN)C(=O)N1CCC[C@H]1C(=O)NCC(=O)N[C@H](CCCCN)C(=O)N[C@H](Cc1c[nH]c2ccccc12)C(=O)N[C@H](CCCCN)C(=O)N[C@H](Cc1c[nH]c2ccccc12)C(=O)N[C@H](CCCCN)C(N)=O , I see its MBC listed as 8 µM

Looking up NCCCC[C@@H](N)C(=O)N[C@H](Cc1c[nH]c2ccccc12)C(=O)N[C@H](CCCCN)C(=O)N[C@H](Cc1c[nH]c2ccccc12)C(=O)N[C@H](CCCCN)C(=O)N[C@@H](CC(N)=O)C(=O)NCC(=O)N[C@H](CCCCN)C(=O)N[C@H](Cc1c[nH]c2ccccc12)C(=O)N[C@H](CCCCN)C(=O)N[C@H](Cc1c[nH]c2ccccc12)C(=O)N[C@H](CCCCN)C(N)=O , I see its MBC listed as 8 µM

Looking up NCCCC[C@@H](NC(=O)[C@H](N)Cc1c[nH]c2ccccc12)C(=O)N[C@H](Cc1c[nH]c2ccccc12)C(=O)N[C@H](CCCCN)C(=O)N[C@H](Cc1c[nH]c2ccccc12)C(=O)N1CCC[C@H]1C(=O)NCC(=O)N[C@H](Cc1c[nH]c2ccccc12)C(=O)N[C@H](CCCCN)C(=O)N[C@H](Cc1c[nH]c2ccccc12)C(=O)N[C@H](CCCCN)C(=O)N[C@H](Cc1c[nH]c2ccccc12)C(N)=O , I see its MBC listed as 8 µM

Looking up NCCCC[C@@H](N)C(=O)N[C@H](Cc1c[nH]c2ccccc12)C(=O)N[C@H](CCCCN)C(=O)N[C@H](Cc1c[nH]c2ccccc12)C(=O)N[C@H](CCCCN)C(=O)NCC(=O)NCC(=O)N[C@H](CCCCN)C(=O)N[C@H](Cc1c[nH]c2ccccc12)C(=O)N[C@H](CCCCN)C(=O)N[C@H](Cc1c[nH]c2ccccc12)C(=O)N[C@H](CCCCN)C(N)=O , I see its MBC listed as 8 µM

Looking up NCCCC[C@@H](NC(=O)[C@H](N)Cc1c[nH]c2ccccc12)C(=O)N[C@H](Cc1c[nH]c2ccccc12)C(=O)N[C@H](CCCCN)C(=O)N[C@H](Cc1c[nH]c2ccccc12)C(=O)N1CCC[C@@H]1C(=O)NCC(=O)N[C@H](Cc1c[nH]c2ccccc12)C(=O)N[C@H](CCCCN)C(=O)N[C@H](Cc1c[nH]c2ccccc12)C(=O)N[C@H](CCCCN)C(=O)N[C@H](Cc1c[nH]c2ccccc12)C(N)=O , I see its MBC listed as 2 µM

Looking up NCCCC[C@@H](NC(=O)[C@H](N)Cc1c[nH]c2ccccc12)C(=O)N[C@H](Cc1c[nH]c2ccccc12)C(=O)N[C@H](CCCCN)C(=O)N[C@H](Cc1c[nH]c2ccccc12)C(=O)N[C@@H](CC(N)=O)C(=O)NCC(=O)N[C@H](Cc1c[nH]c2ccccc12)C(=O)N[C@H](CCCCN)C(=O)N[C@H](Cc1c[nH]c2ccccc12)C(=O)N[C@H](CCCCN)C(=O)N[C@H](Cc1c[nH]c2ccccc12)C(N)=O , I see its MBC listed as 4 µM
